Every entry's value here was drawn from patent US20080021026A1.

pIC50 reference
# assay.target: recombinant N-terminal GST-tagged human Rho kinase 1 (ROCK1, amino acids 1-535) (Homo sapiens, UniProt Q13464)
# Construct: ROCK1, amino acids 1-535; purchased Invitrogen Inc. PV-3691
# Sequence (Q13464 1-535): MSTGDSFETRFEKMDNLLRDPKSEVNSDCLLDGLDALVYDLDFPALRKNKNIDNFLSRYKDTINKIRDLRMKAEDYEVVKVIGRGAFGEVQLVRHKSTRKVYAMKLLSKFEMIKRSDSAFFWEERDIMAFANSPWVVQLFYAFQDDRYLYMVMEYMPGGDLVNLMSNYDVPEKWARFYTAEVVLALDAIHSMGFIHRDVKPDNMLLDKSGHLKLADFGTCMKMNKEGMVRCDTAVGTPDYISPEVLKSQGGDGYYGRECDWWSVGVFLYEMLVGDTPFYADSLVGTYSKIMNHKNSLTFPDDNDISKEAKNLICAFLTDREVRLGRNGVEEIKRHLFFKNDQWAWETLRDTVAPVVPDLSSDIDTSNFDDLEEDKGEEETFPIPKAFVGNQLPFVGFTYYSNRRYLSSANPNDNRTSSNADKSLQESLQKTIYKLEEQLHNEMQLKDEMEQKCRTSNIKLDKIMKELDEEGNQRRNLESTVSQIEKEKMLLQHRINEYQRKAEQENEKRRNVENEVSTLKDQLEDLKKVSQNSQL
# method.summary: In vitro Rho kinase assay (luciferase-based ATP consumption), ROCK1
# Type: biochemical
# condition: recombinant GST-tagged human ROCK1, luciferase-based ATP consumption; read-out: ROCK1 IC50
# Method: In Vitro Rho Kinase Assay Rho kinase biochemical assays described below depend on firefly luciferase-based, indirect measurement of total ATP consumption by the kinase following incubation with substrate and ATP. […] After an additional 10 minute incubation at room temperature (about 22° C.), luminescence activity is measured on a Molecular Devices Analyst multi-mode plate reader or other suitable plate reader. […] Negative control activity is measured with DMSO lacking any test compound. […]
pIC50: −log10 of the molar value.

Some compounds with recorded pIC50:
Cc1c(-c2ccnc(N)n2)sc2ccc(CNC(=O)C(C)c3ccc(-c4ccccc4)c(F)c3)cc12 (centres unmarked)	< 5.30
CCCCc1ccc(C(=O)NCc2ccc3sc(-c4ccnc(N)n4)c(C)c3c2)cc1	< 5.30
Cc1c(-c2ccnc(N)n2)sc2ccccc12	> 5.30
Cc1c(-c2ccnc(N)n2)sc2ccc(CNC(=O)c3ccc(OCc4ccccc4)cc3)cc12	< 5.30
Cc1c(-c2ccnc(N)c2)sc2ccc(Cl)cc12	< 5.30
Cc1c(-c2ccnc(N)n2)sc2ccc(CNC(=O)c3ccc(Cl)cc3[N+](=O)[O-])cc12	< 5.30
Cc1c(-c2ccnc(N)n2)sc2ccc(CNC(=O)C(CC(C)C)NC(=O)OC(C)(C)C)cc12 (centres unmarked)	> 5.30

Item under review: Cc1c(-c2ccnc(N)n2)sc2ccc(CNC(=O)c3cscn3)cc12 . Reported pIC50?
< 5.30

* * *

# assay.target: recombinant N-terminal GST-tagged human Rho kinase 2 (ROCK2, amino acids 1-552) (Homo sapiens)
# Construct: ROCK2, amino acids 1-552; purchased Invitrogen Inc. PV3759
# method.summary: In vitro Rho kinase assay (luciferase-based ATP consumption), ROCK2
# Type: biochemical
# condition: recombinant GST-tagged human ROCK2, luciferase-based ATP consumption; read-out: ROCK2 IC50
# key: entry, value: IC50

Cc1c(-c2ccnc(N)n2)sc2ccc(C(=O)NCc3ccc(F)c(F)c3)cc12	< 5 µM
COc1ccc(CCNC(=O)c2ccc3sc(-c4ccnc(N)n4)c(C)c3c2)cc1	< 5 µM
Cc1c(-c2ccnc(N)n2)sc2ccc(C(=O)NCCc3ccccc3)cc12	< 5 µM
Cc1c(-c2ccnc(N)n2)sc2ccc(C(=O)NCc3ccc4c(c3)OCO4)cc12	< 5 µM

# query: IC50 of entry CCC(C(=O)NCc1ccc2sc(-c3ccnc(N)n3)c(C)c2c1)c1ccccc1 (centres unmarked)
< 5 µM

Could you tell me which IC50 is on file for Cc1c(-c2ccnc(N)n2)sc2ccc(CNC(=O)C(Cc3ccccn3)NC(=O)OC(C)(C)C)cc12 (centres unmarked) ?
> 5 µM

// IC50 lookup, key: Cc1c(-c2ccnc(N)n2)sc2ccc(CNC(=O)COc3ccccc3C=O)cc12
< 5 µM

What does the record list as IC50 for Cc1ccc(C(=O)NCc2ccc3sc(-c4ccnc(N)n4)c(C)c3c2)cc1C ?
> 5 µM

* * *

Overview of recorded IC50 for various molecules
# assay.target: recombinant N-terminal GST-tagged human Rho kinase 1 (ROCK1, amino acids 1-535) (Homo sapiens, UniProt Q13464)
# Construct: ROCK1, amino acids 1-535; purchased Invitrogen Inc. PV-3691
# method.summary: In vitro Rho kinase assay (luciferase-based ATP consumption), ROCK1
# Type: biochemical
# condition: recombinant GST-tagged human ROCK1, luciferase-based ATP consumption; read-out: ROCK1 IC50

These recorded examples may help you get a feel for the data.
Cc1c(-c2ccnc(N)n2)sc2ccc(CNC(=O)c3cc(F)c(Cl)cc3F)cc12	< 5 µM
Cc1ccc(C(=O)NCc2ccc3sc(-c4ccnc(N)n4)c(C)c3c2)cc1	> 5 µM
CCCOc1ccc(C(=O)NCc2ccc3sc(-c4ccnc(N)n4)c(C)c3c2)cc1	< 5 µM
Cc1c(-c2ccnc(N)n2)sc2ccc(Cc3cccc(C(=O)O)c3)cc12	< 5 µM
COc1ccc(OC)c(Cc2ccc3sc(-c4ccnc(N)n4)c(C)c3c2)c1	> 5 µM
Cc1c(-c2ccnc(N)n2)sc2ccc(CNC(=O)C3=CCCC3)cc12	< 5 µM

Given COc1ccc(C(=O)NCc2ccc3sc(-c4ccnc(N)n4)c(C)c3c2)c(OC)c1 , state its recorded IC50.
> 5 µM

* * *

# assay.target: recombinant N-terminal GST-tagged human Rho kinase 2 (ROCK2, amino acids 1-552) (Homo sapiens, UniProt O75116)
# Construct: ROCK2, amino acids 1-552; purchased Invitrogen Inc. PV3759
# Sequence (O75116 1-552): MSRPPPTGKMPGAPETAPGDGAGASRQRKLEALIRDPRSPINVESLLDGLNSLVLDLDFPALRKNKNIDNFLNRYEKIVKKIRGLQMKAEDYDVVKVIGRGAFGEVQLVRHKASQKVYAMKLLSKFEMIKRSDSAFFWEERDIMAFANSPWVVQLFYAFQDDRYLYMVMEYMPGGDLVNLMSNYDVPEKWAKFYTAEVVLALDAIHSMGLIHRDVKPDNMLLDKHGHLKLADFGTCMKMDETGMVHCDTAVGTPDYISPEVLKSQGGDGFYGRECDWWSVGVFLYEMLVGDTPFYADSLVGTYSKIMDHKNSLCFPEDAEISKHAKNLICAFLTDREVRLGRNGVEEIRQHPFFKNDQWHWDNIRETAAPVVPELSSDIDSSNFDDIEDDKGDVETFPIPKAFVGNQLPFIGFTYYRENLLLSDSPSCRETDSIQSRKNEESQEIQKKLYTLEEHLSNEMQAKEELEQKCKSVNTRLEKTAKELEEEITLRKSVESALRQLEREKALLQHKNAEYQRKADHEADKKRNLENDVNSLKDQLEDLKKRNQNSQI
# method.summary: In vitro Rho kinase assay (luciferase-based ATP consumption), ROCK2
# Type: biochemical
# condition: recombinant GST-tagged human ROCK2, luciferase-based ATP consumption; read-out: ROCK2 IC50
# Description: In Vitro Rho Kinase Assay Rho kinase biochemical assays described below depend on firefly luciferase-based, indirect measurement of total ATP consumption by the kinase following incubation with substrate and ATP. […] After an additional 10 minute incubation at room temperature (about 22° C.), luminescence activity is measured on a Molecular Devices Analyst multi-mode plate reader or other suitable plate reader. […] Negative control activity is measured with DMSO lacking any test compound. […]
measurement.type: IC50

Consider the reported IC50 for these molecules:
Cc1c(-c2ccnc(N)n2)sc2ccc(CNC(=O)c3ccc(F)cc3)cc12	< 5 µM
Cc1c(-c2ccnc(N)n2)sc2ccc(CNC(=O)CNC(=O)OC(C)(C)C)cc12	< 5 µM

# input molecule: Cc1c(-c2ccnc(N)n2)sc2ccc(Cc3cccc(C(F)(F)F)c3)cc12 ; wanted: its IC50
> 5 µM

* * *

# assay.target: recombinant N-terminal GST-tagged human Rho kinase 1 (ROCK1, amino acids 1-535) (Homo sapiens, UniProt Q13464)
# Construct: ROCK1, amino acids 1-535; purchased Invitrogen Inc. PV-3691
# method.summary: In vitro Rho kinase assay (luciferase-based ATP consumption), ROCK1
# Type: biochemical
# condition: recombinant GST-tagged human ROCK1, luciferase-based ATP consumption; read-out: ROCK1 IC50
measurement.type: IC50

Worked set:
Cc1c(-c2ccnc(N)n2)sc2ccc(CNC(=O)c3cccc(Cl)c3[N+](=O)[O-])cc12	> 5 µM
CC(=O)c1ccc(C(=O)NCc2ccc3sc(-c4ccnc(N)n4)c(C)c3c2)cc1	> 5 µM

Please examine the following record next.
Given the entry Cc1c(-c2ccnc(N)n2)sc2ccc(CNC(=O)C(NC(=O)OC(C)(C)C)C(C)C)cc12 (stereo not drawn) [Example 293] , report its measured IC50.
> 5 µM

* * *

# assay.target: recombinant N-terminal GST-tagged human Rho kinase 2 (ROCK2, amino acids 1-552) (Homo sapiens)
# Construct: ROCK2, amino acids 1-552; purchased Invitrogen Inc. PV3759
# method.summary: In vitro Rho kinase assay (luciferase-based ATP consumption), ROCK2
# Format: biochemical
# condition: recombinant GST-tagged human ROCK2, luciferase-based ATP consumption; read-out: ROCK2 IC50
pIC50: −log10 of the molar value.
measurement.type: pIC50

Cc1c(-c2ccnc(N)n2)sc2ccc(N)cc12	> 5.30
Cc1c(-c2ccnc(N)n2)sc2ccc(CNC(=O)c3ccc4cccc(O)c4n3)cc12	> 5.30
Cc1c(-c2ccnc(N)n2)sc2ccc(C(=O)NCc3ccco3)cc12	> 5.30
CCC(C)C(NC(=O)OC(C)(C)C)C(=O)NCc1ccc2sc(-c3ccnc(N)n3)c(C)c2c1 (stereo not shown)	< 5.30
Cc1c(-c2ccnc(N)n2)sc2ccc(C(=O)NCc3cc(F)cc(F)c3)cc12	> 5.30

Consider the record given below.
May I ask what pIC50 has been recorded for Cc1c(-c2ccnc(N)n2)sc2ccc(C(=O)NCC3CC3)cc12 ?
> 5.30

* * *

# assay.target: recombinant N-terminal GST-tagged human Rho kinase 2 (ROCK2, amino acids 1-552) (Homo sapiens, UniProt O75116)
# Construct: ROCK2, amino acids 1-552; purchased Invitrogen Inc. PV3759
# method.summary: In vitro Rho kinase assay (luciferase-based ATP consumption), ROCK2
# Type: biochemical
# condition: recombinant GST-tagged human ROCK2, luciferase-based ATP consumption; read-out: ROCK2 IC50
Parameter: IC50. Scope: all listed entries.

Check out these entries, answers already filled in.
COc1cc(CNC(=O)c2ccc3sc(-c4ccnc(N)n4)c(C)c3c2)cc(OC)c1 [Example 439]	< 5 µM
Cc1c(-c2ccnc(N)n2)sc2ccc(CNC(=O)C(C)NC(=O)OC(C)(C)C)cc12 (stereo not shown) [Example 241]	> 5 µM
Cc1c(-c2ccnc(N)n2)sc2ccc(CNC(=O)Cc3ccccc3O)cc12 [Example 35]	< 5 µM

# lookup: IC50 of CCc1c(-c2ccnc(N)n2)sc2ccc(Cl)cc12 [Example 16]
< 5 µM
